Data credit: ChEMBL document CHEMBL1201862

# System: CCRF-CEM
# assayRemarks: NCI tumour cell line growth inhibition, 48 h
The source made the active and inactive calls. Cut-off read from the data, not from the text of the source: active = GI50 up to about 1.1 µM and inactive = higher.
Return exactly one item of yes for active, no for inactive

Task: Hi team, can someone confirm the assay call for CC1(C)C2CCC3CC(CCC#N)CCC3C21C#N (stereo unspecified) ?
Result: no

====

# Tested on: DMS-114
# assayRemarks: NCI tumour cell line growth inhibition, 48 h
Activity calls are given as the source filed them. No stated cut-off is given here; in the data, active = GI50 up to about 1.1 µM and inactive = higher.
Return exactly one item of active, inactive

Observe how each entry below is paired with its result.
[[record]]
compound = "COC(=O)CCC(=O)Nc1ccc(Cl)cc1C"
labelvalue = "active"

[[record]]
compound = "CCOC(=O)/C(=C\\c1ccccc1)C(=O)CCN1CCOCC1"
labelvalue = "inactive"

[[record]]
compound = "O=[N+]([O-])c1nccn1CC(O)CN1CC1 (stereo unspecified)"
labelvalue = "inactive"

[[record]]
compound = "O=S(=O)(O)c1ccc([Se][Se]c2ccc(S(=O)(=O)O)cc2)cc1"
labelvalue = "inactive"

[[record]]
compound = "O=C(Nc1ccc(Cl)cc1Cl)C1C(=O)C(=O)N(c2ccc(Cl)cc2Cl)C1=O (stereo unspecified)"
labelvalue = "inactive"

[[record]]
compound = "COc1cc(C2C(Cl)C(=O)N2n2cnc3ccccc3c2=O)cc(OC)c1OC (stereo unspecified)"
labelvalue = "inactive"

[[record]]
compound = "CSc1ccc2c(cc1=O)C(NC(=O)c1cc(O)c(OC(=O)O)c(O)c1)CCc1cc(O)c(O)c(O)c1-2 (stereo unspecified)"
labelvalue = "inactive"

[[record]]
compound = "COc1cc(Br)c(/C=N\\c2cccc3cc(OC)c(OC)cc23)cc1OC"
labelvalue = "inactive"


Task: Hi team, can someone confirm the assay call for "O=S1(=O)OCCOS(=O)(=O)C1Br" ?
Result: inactive

Task: Hi team, can someone confirm the assay call for "Nc1ccccc1C(=O)CCC1C(=O)NC(=S)NC1=O" ?
Result: inactive

Task: Hi team, can someone confirm the assay call for "Cc1cc(C)c2c(c1)CSCc1cc(C)cc(C)c1-2" ?
Result: inactive

Task: Hi team, can someone confirm the assay call for "CCO[C@@H]1OC(=O)[C@@](C)(C(C)=O)[C@@H]1C" ?
Result: inactive

Task: Hi team, can someone confirm the assay call for "NC(=S)Nc1nnc(-c2ccc(-c3nnc(NC(N)=S)o3)cc2)o1" ?
Result: inactive

Task: Hi team, can someone confirm the assay call for "CN(C)C(=S)/N=c1\ssc(=S)n1Cc1ccco1" ?
Result: inactive

====

Listed molecules paired with reported GI50
# System: SF-539
# assayRemarks: NCI tumour cell line growth inhibition, 48 h
Active and inactive are the calls of the source. Cut-off read from the data, not from the text of the source: active = GI50 up to about 1.1 µM and inactive = higher.

Example entries begin here.
[[record]]
molecule = "Cc1nc(N)nc(N)c1CCCc1ccccc1"
testsystem = "SF-539"
measurement = "13.9 µM (inactive)"

[[record]]
molecule = "CSC1(C)CC2C(CC1N1CCCCC1)C2(C)C (stereo unspecified)"
testsystem = "SF-539"
measurement = "> 100 µM (inactive)"

[[record]]
molecule = "O=C(O)c1cccc(OCCOc2cccc(C(=O)O)c2[N+](=O)[O-])c1[N+](=O)[O-]"
testsystem = "SF-539"
measurement = "> 100 µM (inactive)"

[[record]]
molecule = "Cc1c2c(n3c(nc4ccccc43)c1C#N)N(c1ccc(F)cc1)CC2"
testsystem = "SF-539"
measurement = "> 100 µM (inactive)"

[[record]]
molecule = "COc1ccc(C(=O)/C=C/c2ccc(Oc3cc(C(=O)/C=C/c4ccc(O)cc4)c(O)cc3OC)cc2)c(O)c1 [RHUSCHALCONE I]"
testsystem = "SF-539"
measurement = "2.19 µM (inactive)"


# input for lookup
Task: Look up GI50 of "COC(=O)Cc1ccc2c(c1)Sc1ccc(CC(=O)OC)cc1N2C" and report it.
Result: 36.3 µM (inactive)
